- Tested on: G4 structure found on 5′UTR of NRAS mRNA
- protocol: Fluorescence quenching assay
- Format: binding
- measurement_parameters: Cy5-tagged oligonucleotide 50 nM, HEPES pH 7.4, 25.0° C.
measurement_type: pEC50
Scale: negative log10 of molar concentration, which is what pEC50 denotes.

Q. Supply recorded pEC50 for NCCOc1cc(C(=O)Nc2cc(OCCN)c3ccccc3n2)nc(C(=O)Nc2cc(OCCN)c3ccccc3n2)c1 [PDS, Pyridostatin] here.
A. 7.29
